All figures here come from patent US20220296515A1.

Experiment: Pharmacokinetic study in rat models (single dose, infusion)
Type: in vivo
Conditions: serum, iv, 15 mg/kg, infusion time 1 h
experimental.readout: half-life

smiles.structure: CN[C@H](CC(C)C)C(=O)N[C@H]1C(=O)N[C@@H](CC(N)=O)C(=O)N[C@H]2C(=O)N[C@H]3C(=O)N[C@H](C(=O)N[C@H](C(=O)O)c4cc(O)cc(O)c4-c4cc3ccc4O)[C@H](O)c3ccc(c(Cl)c3)Oc3cc2cc(c3O[C@@H]2O[C@H](CO)[C@@H](O)[C@H](O)[C@H]2O[C@H]2C[C@](C)(N)[C@H](O)[C@H](C)O2)Oc2ccc(cc2Cl)[C@H]1O
val: 48 min

----------
Experiment: Pharmacokinetic study in rat models (single dose, infusion)
Format: in vivo
Conditions: serum, iv, 15 mg/kg, infusion time 1 h

smiles.structure: CN[C@H](CC(C)C)C(=O)N[C@H]1C(=O)N[C@@H](CC(N)=O)C(=O)N[C@H]2C(=O)N[C@H]3C(=O)N[C@H](C(=O)N[C@H](C(=O)O)c4cc(O)cc(O)c4-c4cc3ccc4O)[C@H](O)c3ccc(c(Cl)c3)Oc3cc2cc(c3O[C@@H]2O[C@H](CO)[C@@H](O)[C@H](O)[C@H]2O[C@H]2C[C@](C)(N)[C@H](O)[C@H](C)O2)Oc2ccc(cc2Cl)[C@H]1O
Cmax (ng/mL): 34600

----------
Assay: Pharmacokinetic study in rat models (single dose, infusion)
Assay type: in vivo
Conditions: serum, iv, 15 mg/kg, infusion time 1 h
experimental.readout: Tmax (h)

smiles.structure: CN[C@H](CC(C)C)C(=O)N[C@H]1C(=O)N[C@@H](CC(N)=O)C(=O)N[C@H]2C(=O)N[C@H]3C(=O)N[C@H](C(=O)N[C@H](C(=O)O)c4cc(O)cc(O)c4-c4cc3ccc4O)[C@H](O)c3ccc(c(Cl)c3)Oc3cc2cc(c3O[C@@H]2O[C@H](CO)[C@@H](O)[C@H](O)[C@H]2O[C@H]2C[C@](C)(N)[C@H](O)[C@H](C)O2)Oc2ccc(cc2Cl)[C@H]1O
val: 0
